Measured values drawn from paper PMC9558256 for this set.

assay: Cytotoxicity on RAW 264.7 macrophages; assay type: cell-based; settings: mouse
quantity name: CC50 (µM)
Numbers only, in µM.

Prompt: Recorded CC50 for CCCCNC=C1C(=O)C(=O)c2ccccc2C1=O , please?
Completion: 46.5

Prompt: For O=C1c2ccccc2C(=O)c2c1oc(NC1CCCCC1)c2-c1ccc(Cl)cc1 , what is its reported CC50?
Completion: 54.2

Prompt: Given the compound CCCCCCCCCCCCCCCCOP(=O)([O-])OCC[N+](C)(C)C [miltefosine, reference compound] , what is its reported CC50?
Completion: 22.6

Prompt: Which CC50 value belongs to CC(C)(C)Nc1oc2c(c1C1CCN(C(=O)OC(C)(C)C)CC1)C(=O)c1ccccc1C2=O ?
Completion: 49.2

Prompt: I would be grateful if you could share the reported CC50 for O=C1C(O)=C([C@H]2CC[C@H](c3ccc(Cl)cc3)CC2)C(=O)c2ccccc21 [atovaquone (7), atovaquone, reference compound] .
Completion: 44

Further cases:
Prompt: // lookup CC50 for O=C1C=C(O)C(=O)c2ccccc21 [lawsone (1), 2-hydroxy-1,4-naphthoquinone, reference compound]
Completion: 44
